Can you tell me kon for the items I'm about to list?
Assayed system: T1, TNFR2-His protein (Homo sapiens, UniProt P20333)
T1 construct: Tumor necrosis factor receptor 2 (TNFR2), human; The BLI methods say only 'TNFR2-His protein'; It may be the E. coli ectodomain (residues 33-205, purified on a nickel column) or a bought protein (Sino Biological 10417-H03H); neither the source nor the species is named for this experiment; also called histidine-tagged TNFR2
T1 sequence (P20333 23-461): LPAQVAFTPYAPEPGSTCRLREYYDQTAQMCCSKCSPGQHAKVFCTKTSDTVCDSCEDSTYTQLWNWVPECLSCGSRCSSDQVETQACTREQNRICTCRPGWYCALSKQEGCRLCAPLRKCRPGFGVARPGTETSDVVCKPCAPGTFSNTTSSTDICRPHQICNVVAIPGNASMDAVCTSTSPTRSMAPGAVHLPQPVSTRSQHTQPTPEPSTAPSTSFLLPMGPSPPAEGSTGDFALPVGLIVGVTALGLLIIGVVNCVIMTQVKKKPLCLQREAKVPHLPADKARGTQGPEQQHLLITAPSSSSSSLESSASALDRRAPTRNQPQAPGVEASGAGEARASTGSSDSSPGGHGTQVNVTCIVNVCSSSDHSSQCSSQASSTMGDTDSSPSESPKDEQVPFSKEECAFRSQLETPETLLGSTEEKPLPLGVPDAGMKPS
Run description: BLI; 30 nM Nanobody-161 IgG1 or mutant immobilised on Protein A biosensors (Gator); 4800 nM-300 nM TNFR2-His in Q Buffer (PBS, 0.02% Tween 20, 0.2% BSA); 25 °C; association 120 s, dissociation 180 s; global 1:1 Langmuir fit
Protocol conditions: both partners purified

Return kon for the following binder: Nanobody-161 IgG1 F30G (VHH, as the VHH of Wm1, with the stated change) VHH: EVQLVESGGGLVQPGGSLRLSCAASGSIRGINDMGWYRQAPGKGLELVAAIGRGGGSTNYADSVKGRFTISRDNAKNTLYLQMNSLRAEDTAVYYCHAEISQLGYAFRDYWGQGTLVTVSS
3340 M⁻¹ s⁻¹

Answer with the recorded kon for the binder listed here: Nanobody-161 IgG1 L103G (VHH, as the VHH of Wm1, with the stated change) VHH: EVQLVESGGGLVQPGGSLRLSCAASGSIRFINDMGWYRQAPGKGLELVAAIGRGGGSTNYADSVKGRFTISRDNAKNTLYLQMNSLRAEDTAVYYCHAEISQGGYAFRDYWGQGTLVTVSS
3920 M⁻¹ s⁻¹

Retrieve kon measured for Nanobody-161 IgG1 (VHH, also called WT; source: ExpiCHO, purified (MabSelect SuRe LX)) VHH: EVQLVESGGGLVQPGGSLRLSCAASGSIRFINDMGWYRQAPGKGLELVAAIGRGGGSTNYADSVKGRFTISRDNAKNTLYLQMNSLRAEDTAVYYCHAEISQLGYAFRDYWGQGTLVTVSS and print it.
3390 M⁻¹ s⁻¹

Give a short answer stating reported kon for Nanobody-161 IgG1 Q102A (VHH, as the VHH of Wm1, with the stated change) VHH: EVQLVESGGGLVQPGGSLRLSCAASGSIRFINDMGWYRQAPGKGLELVAAIGRGGGSTNYADSVKGRFTISRDNAKNTLYLQMNSLRAEDTAVYYCHAEISALGYAFRDYWGQGTLVTVSS .
3290 M⁻¹ s⁻¹

Please list kon recorded for the binder Nanobody-161 IgG1 R53A (VHH, as the VHH of Wm1, with the stated change) VHH: EVQLVESGGGLVQPGGSLRLSCAASGSIRFINDMGWYRQAPGKGLELVAAIGAGGGSTNYADSVKGRFTISRDNAKNTLYLQMNSLRAEDTAVYYCHAEISQLGYAFRDYWGQGTLVTVSS
4030 M⁻¹ s⁻¹

Read off the recorded kon for Nanobody-161 IgG1 R108A (VHH, as the VHH of Wm1, with the stated change) VHH: EVQLVESGGGLVQPGGSLRLSCAASGSIRFINDMGWYRQAPGKGLELVAAIGRGGGSTNYADSVKGRFTISRDNAKNTLYLQMNSLRAEDTAVYYCHAEISQLGYAFADYWGQGTLVTVSS
4730 M⁻¹ s⁻¹

Tell me its kon given Nanobody-161 IgG1 R29A (VHH, as the VHH of Wm1, with the stated change) VHH: EVQLVESGGGLVQPGGSLRLSCAASGSIAFINDMGWYRQAPGKGLELVAAIGRGGGSTNYADSVKGRFTISRDNAKNTLYLQMNSLRAEDTAVYYCHAEISQLGYAFRDYWGQGTLVTVSS as the entry.
3170 M⁻¹ s⁻¹

Using known records, supply kon for Nanobody-161 IgG1 S101A (VHH, as the VHH of Wm1, with the stated change) VHH: EVQLVESGGGLVQPGGSLRLSCAASGSIRFINDMGWYRQAPGKGLELVAAIGRGGGSTNYADSVKGRFTISRDNAKNTLYLQMNSLRAEDTAVYYCHAEIAQLGYAFRDYWGQGTLVTVSS
5370 M⁻¹ s⁻¹
